B1: tRNA (parent)
chain: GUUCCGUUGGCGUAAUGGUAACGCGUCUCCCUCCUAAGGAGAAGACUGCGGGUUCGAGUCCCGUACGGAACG

Variants of: B1
Assay: yeast fitness relative to wild type (ratio to wild type); higher = fitter; tRNA-Arg(CCU), competitive growth, 37 C, YPD
This sample holds only a part of the variants without activity.
Each entry gets No if its yeast fitness stays under 0.7, and Yes if its yeast fitness is 0.7 or above.

Examples with answers:
C5U A45C G56A    Yes
U13A A15C A45G C55U C61G A69C    No
U8G C24U C29G C31A A45G C61U A65C G67A G68A    No

query: Form field: yeast fitness at least 0.7? Entry: G12A C49U A65C
result: No

query: Form field: yeast fitness at least 0.7? Entry: U13C A20C
result: Yes

query: Form field: yeast fitness at least 0.7? Entry: C46U A65C
result: Yes

query: Form field: yeast fitness at least 0.7? Entry: C22A C33G A43C C49U U64C
result: No

query: Form field: yeast fitness at least 0.7? Entry: C30A C61U
result: Yes

query: Form field: yeast fitness at least 0.7? Entry: G12C U19A C27G C62A
result: No

query: Form field: yeast fitness at least 0.7? Entry: U2C A37G A70C
result: No

query: Form field: yeast fitness at least 0.7? Entry: C24U C49A G67A
result: No

query: Form field: yeast fitness at least 0.7? Entry: C46U C66U
result: Yes

query: Form field: yeast fitness at least 0.7? Entry: C22G C31U C61G
result: No

query: Form field: yeast fitness at least 0.7? Entry: C5G C27G C33U G56A A69U
result: No
